- System under test: chicken gizzard smooth muscle myosin subfragment-1 chemically crosslinked to cardiac or skeletal actin (Gallus gallus)
Items are presented alongside their recorded IC50.
Express it in nM; write the number only.

Here is how some molecules turned out for IC50.
Molecule: N#Cc1ccccc1-c1ccc(C(=O)NC[C@H]2CCC(=O)N2CCCN)c(NCCc2cccc(F)c2)n1
Unit: nM
IC50: 42
--
Molecule: N#Cc1ccccc1-c1ccc(C(=O)NCc2ccc(N3CCNCC3)nc2)c(NCCc2cccc(F)c2)n1
Unit: nM
IC50: 1750
--
Molecule: CC(C)(C)OC(=O)NCCCN1CCC(CNC(=O)c2ccc(-c3cn[nH]c3)nc2NCCc2cccc(F)c2)C1=O (centres unmarked)
Unit: nM
IC50: 589
--
Molecule: O=C(NCc1cccnc1)c1ccc(-c2ccccc2)nc1NCC(O)c1ccccc1 (centres unmarked)
Unit: nM
IC50: 1940
--
Molecule: C[C@@H](CNC(=O)CNC(=O)OC(C)(C)C)CNC(=O)c1cc(F)c(-c2cnn(C)c2)nc1NCCc1cccc(F)c1
Unit: nM
IC50: 373

Can you look up the measured IC50 of N#Cc1ccccc1-c1ccc(C(=O)NCC2CCCCC(=O)N2)c(NCCc2cccc(F)c2)n1 (centres unmarked) for me?
95

How about this molecule: `CC(C)(C)OC(=O)NCCC(=O)N1CCC[C@H](CNC(=O)c2ccc(-c3ccccc3C#N)nc2NCCc2cccc(F)c2)C1`
3790

Try the molecule `CC1(C)OCC(CNC(=O)c2ccc(-c3ccccc3C#N)nc2NCCc2cccc(F)c2)CO1`
1020

* * *

- System under test: chicken gizzard smooth muscle myosin subfragment-1 chemically crosslinked to cardiac or skeletal actin (Gallus gallus, UniProt P10587)
- Sequence (P02607 2-151): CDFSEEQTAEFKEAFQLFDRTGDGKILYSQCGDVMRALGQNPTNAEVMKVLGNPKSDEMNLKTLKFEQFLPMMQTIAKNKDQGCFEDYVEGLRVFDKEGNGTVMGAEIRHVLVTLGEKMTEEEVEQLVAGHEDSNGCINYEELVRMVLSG
- Sequence (P10587 84-789): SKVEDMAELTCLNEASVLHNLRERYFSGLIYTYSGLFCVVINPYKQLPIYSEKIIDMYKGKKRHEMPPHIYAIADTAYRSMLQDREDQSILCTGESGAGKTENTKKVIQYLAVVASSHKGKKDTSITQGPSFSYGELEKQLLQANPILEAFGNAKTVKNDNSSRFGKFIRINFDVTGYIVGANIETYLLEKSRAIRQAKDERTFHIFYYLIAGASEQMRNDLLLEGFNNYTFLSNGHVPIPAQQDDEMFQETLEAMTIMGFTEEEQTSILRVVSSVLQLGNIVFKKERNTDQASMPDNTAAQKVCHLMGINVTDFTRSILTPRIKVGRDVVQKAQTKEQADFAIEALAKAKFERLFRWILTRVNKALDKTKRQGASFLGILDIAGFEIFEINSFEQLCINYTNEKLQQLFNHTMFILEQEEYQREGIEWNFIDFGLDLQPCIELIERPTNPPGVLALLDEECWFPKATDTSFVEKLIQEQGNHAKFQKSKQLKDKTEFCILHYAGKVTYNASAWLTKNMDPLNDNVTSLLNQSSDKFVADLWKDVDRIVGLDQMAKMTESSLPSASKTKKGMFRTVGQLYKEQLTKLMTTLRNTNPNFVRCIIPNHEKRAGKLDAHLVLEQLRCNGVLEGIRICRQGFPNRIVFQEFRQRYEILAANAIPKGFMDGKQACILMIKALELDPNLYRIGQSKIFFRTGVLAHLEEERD
Quantity: pIC50
Kindly note that pIC50 refers to -log10 of the concentration in mol/L and answer with the value alone.

Smiles notation: COC(=O)[C@H](C)CNC(=O)c1cc(F)c(-c2cnn(C)c2)nc1N
pIC50: 4.07
--
Smiles notation: O=C(NCc1cccnc1)c1ccc(-c2ccccc2F)nc1NCCc1ccccn1
pIC50: 5.88
--
Smiles notation: N#Cc1ccccc1-c1ccc(C(=O)NC[C@H]2CCCC(=O)N2CCCCN2C(=O)c3ccccc3C2=O)c(NCCc2cccc(F)c2)n1
pIC50: 6.10
--
Smiles notation: C[C@H](CNC(=O)c1ccc(-c2ccccc2C#N)nc1NCCc1cccc(F)c1)N(C)C(=O)CN
pIC50: 6.82
--
Smiles notation: Cn1cc(-c2nc(NCCc3cccc(F)c3)c(C(=O)NCCCN)cc2F)cn1
pIC50: 5.40

Please give the measured pIC50 for this compound: `CN1CCN(C(=O)CN)C[C@@H]1CNC(=O)c1ccc(-c2ccccc2C#N)nc1NCCc1cccc(F)c1`
5.16

Also `CC(=O)N1CCNC[C@@H]1CNC(=O)c1ccc(-c2ccccc2C#N)nc1NCCc1cccc(F)c1` , if possible.
5.13

Then what about the compound `N#Cc1ccccc1-c1ccc(C(=O)N[C@@H](CCCN)C(N)=O)c(NCCc2cccc(F)c2)n1` ?
5.27

Now consider `CC(C)(C)OC(=O)NCCC(=O)N1CCC[C@@H]1CNC(=O)c1cc(F)c(-c2ccccc2C#N)nc1NCCc1cccc(F)c1` .
5.56

* * *

- System under test: chicken gizzard smooth muscle myosin subfragment-1 chemically crosslinked to cardiac or skeletal actin (Gallus gallus, UniProt P10587)
pIC50: −log10 of the molar value.
Binary classification by pIC50, with 6 as an inclusive lower bound for fulfilled; all other cases are not fulfilled.

Illustrative cases are given below, each with its answer.
Compound: N#Cc1ccccc1-c1ccc(C(=O)NC[C@@H](CN)NC(=O)CN)c(NCCc2cccc(F)c2)n1
Assigned class: not fulfilled
//
Compound: Cn1cc(-c2ccc(C(=O)NCc3ccnn3CCN)c(NCCc3cccc(F)c3)n2)cn1
Assigned class: fulfilled
//
Compound: NCc1ncccc1CNC(=O)c1ccc(-c2ccccc2)nc1NCCc1cccc(F)c1
Assigned class: fulfilled
//
Compound: O=C(NC[C@H]1CCN1C(=O)CO)c1ccc(-c2ccc(CO)s2)nc1NCCc1cccc(F)c1
Assigned class: not fulfilled
//
Compound: NCCc1cccc(CNC(=O)c2ccc(-c3ccccc3)nc2NCCc2cccc(F)c2)n1
Assigned class: fulfilled

Answer whether pIC50 of `N#Cc1ccccc1-c1ccc(C(=O)NC[C@@H]2CCC(=O)N2CCCN)c(NCCc2cccc(F)c2)n1` is greater than or equal to 6.
fulfilled

Param item: NCC(O)c1ccc(-c2ccccc2)nc1NCCc1cccc(F)c1 (stereo not shown)
not fulfilled

Same thing, different compound: `C[C@H](CNC(=O)c1cc(F)c(-c2cn[nH]c2)nc1NCCc1cccc(F)c1)NC(=O)OC(C)(C)C`
not fulfilled

Field entry: `Cn1cc(-c2nc(NCCc3cccc(F)c3)c(C(=O)NC[C@H]3CCC(=O)N3)cc2F)cn1`
fulfilled

Now this one: `N#Cc1ccccc1-c1ccc(C(=O)NCc2cccc(Br)n2)c(NCCc2cccc(F)c2)n1`
fulfilled

Follow-up entry: `NCCCC(=O)N1CCC[C@@H]1CNC(=O)c1cc(F)c(-c2cn[nH]c2)nc1NCCc1cccc(F)c1`
fulfilled

Ok, now `N#Cc1ccccc1-c1ccc(C(=O)NCc2cccnc2NCCCN)c(NCCc2cccc(F)c2)n1`
fulfilled

Also need CCOC(=O)CNCC(O)c1ccc(-c2ccccc2)nc1NCCc1cccc(F)c1 (stereo not shown) , thanks.
not fulfilled

// same read-out, input: `Cn1cc(-c2nc(NCCc3cccc(F)c3)c(C(=O)NCc3cccnc3CNC(=O)OC(C)(C)C)cc2F)cn1`
fulfilled

What do you have for `Cn1cc(-c2nc(NCCc3cccc(F)c3)c(C(=O)NCCCNC(=O)CN)cc2F)cn1` ?
not fulfilled

Please answer likewise for `Cn1cc(-c2ccc(C(=O)NCc3ccn(CCCN)n3)c(NCCc3cccc(F)c3)n2)cn1`
not fulfilled

And for `Cn1cc(-c2nc(NCCc3cccc(F)c3)c(C(=O)NCc3cccnc3)cc2C#N)cn1` ?
fulfilled

Try this compound next: `N#Cc1cc(C(=O)NCc2cccnc2CN)c(NCCc2cccc(F)c2)nc1-c1cn[nH]c1`
fulfilled

Values compiled from patent US7932270B2.
